Cited source for all entries: PubChem BioAssay AID1778

Biological target: Kappa-type opioid receptor (Homo sapiens) (UniProt P41145)
Sequence (P41145 whole entry, looked up): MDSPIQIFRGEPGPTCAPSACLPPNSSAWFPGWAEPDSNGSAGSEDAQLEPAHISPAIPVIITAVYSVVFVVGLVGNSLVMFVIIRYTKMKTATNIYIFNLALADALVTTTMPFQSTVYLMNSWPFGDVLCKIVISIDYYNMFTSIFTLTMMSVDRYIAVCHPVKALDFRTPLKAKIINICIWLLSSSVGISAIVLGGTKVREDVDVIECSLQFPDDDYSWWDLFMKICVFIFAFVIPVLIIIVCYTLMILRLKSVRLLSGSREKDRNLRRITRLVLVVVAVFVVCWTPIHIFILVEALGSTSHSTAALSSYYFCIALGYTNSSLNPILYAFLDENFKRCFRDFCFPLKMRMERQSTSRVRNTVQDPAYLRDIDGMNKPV
Assay: kappa opioid receptor blockers – cell-based, luminescence, uHTS (AID 1778)
Details: KOR beta-arrestin recruitment, antagonist mode; at 10 µM unless noted
In all, about 290,000 compounds went through this assay and about 260 (0.09%) were called active. Cut-off read from the data, not from the text of the source: active = inhibition above about 50%; inactive = the rest. This excerpt belongs to a sample that is enriched for actives. Results with a measured potency or affinity are listed apart.
Give your call using only these classes: active, inactive

Illustrative cases are given below, each with its answer.
COMPOUND | CLASS
Cc1nnc(Sc2cc(NCCO)c([N+](=O)[O-])c3nonc23)s1 | inactive
CCCC(=O)OCCNc1cc(Sc2nc3ccccc3[nH]2)c2nonc2c1[N+](=O)[O-] | inactive
Cc1ccc(COC(=O)c2nn(C)c(=O)c3ccccc23)cc1 | inactive
COC(=O)c1sccc1S(=O)(=O)Nc1ccc(Cl)cc1 | inactive
NS(=O)(=O)c1ccc(Nc2ccc([N+](=O)[O-])c3nonc23)cc1 | inactive
CC(C)CCn1nnnc1CN1CCN(c2ccc(F)cc2)CC1 | inactive
Cc1ccc(Sc2cc(NCCCO)c([N+](=O)[O-])c3nonc23)cc1 | inactive
Oc1ccc2ccccc2c1N=Nc1nccs1 | active
O=C(CCCCCN1C(=O)c2ccccc2C1=O)Oc1ccc2c3c(c(=O)oc2c1)CCC3 | inactive
Cc1cccc(CN2CCN(C(=S)Nc3ccccc3)CC2)c1 | inactive

Can you look up the reported call for Oc1ccc(N=Nc2c(O)ccc3ccccc23)cc1 for me? inactive

Can you look up the reported call for O=C(CSc1nnc2c(Cl)cc(C(F)(F)F)cn12)N(Cc1ccccc1)Cc1ccccc1 for me? inactive

Can you look up the reported call for Cc1[nH][nH]c(=O)c1C(c1c(C)[nH][nH]c1=O)c1cn(Cc2ccc(Cl)c(Cl)c2)c2ccccc12 for me? inactive

Can you look up the reported call for CC(C)C(C(=O)NC(C)(C)C)N1C(=O)c2ccccc2C1=O (stereo not drawn) for me? inactive

Can you look up the reported call for Cc1[nH][nH]c(=O)c1C(c1c(C)[nH][nH]c1=O)c1cn(Cc2ccc(F)cc2)c2ccccc12 for me? active

Can you look up the reported call for CN(Cc1cnn(-c2ccccc2)c1)C(=O)C1CCC(=O)N(C2CC2)C1 (stereo not drawn) for me? inactive

Can you look up the reported call for CCCSc1cc(NCCOC(C)=O)c([N+](=O)[O-])c2nonc12 for me? inactive

Can you look up the reported call for Oc1c(N=Nc2ccc(F)cc2)ccc2ccccc12 for me? inactive

Can you look up the reported call for O=[N+]([O-])c1c(Nc2ccccc2O)ccc2nonc12 for me? inactive

Can you look up the reported call for Oc1ccc2ccccc2c1/C=N/c1nccs1 for me? inactive

Can you look up the reported call for O=C(NNC(=O)C1CC=CCC1C(=O)O)c1cccs1 (stereo not drawn) for me? inactive

Can you look up the reported call for CC(=O)OCCNc1cc(SC(C)C)c2nonc2c1[N+](=O)[O-] for me? inactive

Can you look up the reported call for Oc1ccc2ccccc2c1N=Nc1ccccc1F for me? inactive

----------
Molecular target: Kappa-type opioid receptor (Homo sapiens) (UniProt P41145)
Experiment: kappa opioid receptor blockers – cell-based, luminescence, uHTS (AID 1778)
Conditions: KOR beta-arrestin recruitment, antagonist mode; at 10 µM unless noted
Out of some 290,000 compounds screened, about 260 (0.09%) were called active. Rule as the data show it: active = inhibition above about 50%; inactive = the rest. Shown is part of a subset that was picked to be rich in actives. Measured potencies and affinities stand elsewhere.
Give your call using only these classes: active, inactive

Illustrative cases are given below, each with its answer.
COMPOUND | CLASS
O=C(/C=C/c1cccnc1)/C=C/c1cccnc1 | active
Cc1ccnc(NC(=O)c2sc3cc(Cl)ccc3c2Cl)c1 | inactive
CCN(CC)C(=O)Oc1ccc(Cl)c2cccnc12 | inactive
CC1=C/C(=N\NC(=S)NCCc2ccccc2)CC(C)(C)C1 | inactive
COc1cccc(C(=O)Oc2cc(C)[nH]c(=O)c2[N+](=O)[O-])c1OC | inactive

Can you look up the reported call for CC1=C(C#N)C(NC(=O)c2ccco2)(C(F)(F)F)C(=O)N1 (configuration not stated) for me? inactive

Can you look up the reported call for O=c1[nH]c(-c2ccccn2)nc2ccccc12 for me? inactive

Can you look up the reported call for Cc1cccc(NC(=O)CSc2cccc3cccnc23)c1 for me? inactive

Can you look up the reported call for CCOc1ccc(NC(=O)c2ccc(NC(=S)NC3CCCCC3)cc2)cc1 for me? inactive

Can you look up the reported call for N#CCC(=O)NNC(=S)NC(=O)C(c1ccccc1)c1ccccc1 for me? inactive

Can you look up the reported call for O=C(c1cc(F)ccc1F)C1CCCN(C(=O)CCCN2CCCCC2=O)C1 (configuration not stated) for me? inactive

Can you look up the reported call for Cc1sc2nc(-c3ccccn3)[nH]c(=O)c2c1-c1ccccc1 for me? inactive

Can you look up the reported call for O=C1/C(=C/c2cccnc2)SC(=S)N1c1ccc(O)cc1 for me? inactive

Can you look up the reported call for CC(CN1CCN(C)CC1)OC(=O)c1ccccc1 (configuration not stated) for me? inactive

Can you look up the reported call for Cn1c(CCNC(=O)c2ccccc2)nc2cc(NC(=O)C3CCCCC3)ccc21 for me? inactive

Can you look up the reported call for O=C(Nc1cccc(C(F)(F)F)c1)Oc1ccc(Cl)c2cccnc12 for me? active

Can you look up the reported call for COc1ccc(CSc2cccc3cccnc23)cc1[N+](=O)[O-] for me? inactive
